FYI, the data here is from paper PMC3325938.

Test: Cytotoxicity, resazurin-based reductase assay
Assay type: cell-based, human
Settings: human, HepG2 cells; HepG2, 48 h exposure, resazurin; mean ± SD, 3–6 independent experiments
Would you kindly list IC50 at 48 h for each of these compounds?
Give bare numbers, in µM.

- OC(c1cc(C(F)(F)F)nc2c(C(F)(F)F)cccc12)C1CCCCN1 (centres unmarked): 11

From here, focus on the item given below.
Ask | Please look up its IC50 at 48 h: `CCN(CC)Cc1ccc(Nc2ccnc3cc(Cl)ccc23)cc1O`
Reply | 17.1

###

Please go through the items and note down their pIC50.
Tested on: P. falciparum asexual forms (3D7A)
Assay: In vitro antiplasmodial activity on asexual stages (uptake of radiolabeled nucleic acid precursor), 3D7A
Assay type: cell-based, Plasmodium falciparum
Conditions: Plasmodium falciparum; mean ± SD, 3–6 independent experiments; serum-free (AlbuMAX II); read-out: IC50 Activity against asexual forms (3D7A)
One number for each entry, as −log10 of the molar value.

Some entries whose results are on file:
* CCCCN(CCCC)CC(O)c1cc(Cl)cc2c1-c1ccc(Cl)cc1/C2=C/c1ccc(Cl)cc1 (centres unmarked) | 8.49
* C[C@H]1[C@@H](O)O[C@@H]2O[C@@]3(C)CC[C@H]4[C@H](C)CC[C@@H]1[C@@]24OO3 [Dihydroartemisinin] | 8.55
* CN(C)c1ccc2nc3ccc(=[N+](C)C)cc-3sc2c1 | 7.96
* CCCCN(CCCC)CCC(O)c1cc2c(Cl)cc(Cl)cc2c2cc(C(F)(F)F)ccc12 (centres unmarked) | 8.96
* OC(c1cc(C(F)(F)F)nc2c(C(F)(F)F)cccc12)C1CCCCN1 (centres unmarked) | 7.59
* C[C@H]1[C@H](OC(=O)CCC(=O)O)O[C@@H]2O[C@@]3(C)CC[C@H]4[C@H](C)CC[C@@H]1[C@@]24OO3 [Artesunate] | 7.43

Ask | Find the recorded pIC50 belonging to `CCN(CC)Cc1ccc(Nc2ccnc3cc(Cl)ccc23)cc1O` and report it.
Reply | 8.05
